# system.under.test: AcerOr1 (Apis cerana cerana)
# Assay type: cell-based
# measurement.context: Sf9 cells expressing AcerOr1, concentration-response, 4-parameter logistic fit
Recorded measurements of Emax, one per entry
outcome.measure: Emax

• CCCCCCOC(C)=O [Hexyl acetate] = 115.94
• CCCCCCCCCCC(=O)O [Undecanoic acid] = 116.69
• CC(C)=CCC/C(C)=C\CO [Nerol] = 184.92
• CCCCCCCCCO [1-Nonanol] = 69.86
• CCc1ccc(NC(=O)CSc2nnc(-c3cccnc3)n2CC)cc1 [VUAA1] = 4.64
• C=CC(C)=CCC=C(C)C [Ocimene] = 144.27
• CC/C=C\C/C=C\C/C=C\CCCCCCCC(=O)O [Linolenic acid] = 85.74
• CCCCCCCCO [1-Octyl alcohol] = 106.77
• CCCCCCCCCCCC(=O)O [Lauric acid] = 138.79
• C=CCc1ccc(O)c(OC)c1 [Eugenol] = 88.53

---

# system.under.test: AcerOr1 (Apis cerana cerana, UniProt G8HAQ8)
# Sequence (G8HAQ8 entry or part of it): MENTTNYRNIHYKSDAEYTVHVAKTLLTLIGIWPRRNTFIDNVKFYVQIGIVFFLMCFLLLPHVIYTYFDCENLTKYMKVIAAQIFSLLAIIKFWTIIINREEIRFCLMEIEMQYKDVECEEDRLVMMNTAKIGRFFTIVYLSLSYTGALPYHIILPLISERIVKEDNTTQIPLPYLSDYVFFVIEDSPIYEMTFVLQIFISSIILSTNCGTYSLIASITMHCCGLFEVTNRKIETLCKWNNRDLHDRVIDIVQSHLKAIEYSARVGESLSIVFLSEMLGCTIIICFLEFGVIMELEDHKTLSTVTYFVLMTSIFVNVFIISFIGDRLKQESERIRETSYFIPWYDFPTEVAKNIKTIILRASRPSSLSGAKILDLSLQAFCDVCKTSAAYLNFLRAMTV
# Format: cell-based
# measurement.context: Sf9 cells expressing AcerOr1, Ca2+ imaging; read-out: EC50
pEC50: −log10 of the molar value.
outcome.measure: pEC50

• C=CC(C)=CCC=C(C)C [Ocimene] = 7.27
• CCCCCCCCCCCC(=O)O [Lauric acid] = 7.32

---

Recorded measurements of HillSlope, one per entry
# system.under.test: AcerOr1 (Apis cerana cerana, UniProt G8HAQ8)
# Format: cell-based
# measurement.context: Sf9 cells expressing AcerOr1, 4-parameter logistic fit
outcome.measure: HillSlope

• CCCCCCOC(C)=O [Hexyl acetate] = 0.73
• C=CCc1ccc(O)c(OC)c1 = 0.74
• CC(C)=CCC/C(C)=C\CO = 0.52
• C=CC(C)=CCC=C(C)C = 0.50
• CCc1ccc(NC(=O)CSc2nnc(-c3cccnc3)n2CC)cc1 = 1.72
• CCCCCCCCCCC(=O)O = 0.73
• CCCCCCCCCCCC(=O)O = 0.49
• CCCCCCCCO = 0.63
• CCCCCCCCCO = 0.80
• CC/C=C\C/C=C\C/C=C\CCCCCCCC(=O)O = 0.87
